The measurements presented in this section are drawn from the supplement of paper PMC8728848.

Biological target: Man(a1-3)[Man(a1-6)]Man(a1-6)[Man(a1-2)Man(a1-3)]Man(b1-4)GlcNAc(b1-4)GlcNAc
Assay: glycan array binding signal (z-score within array); higher = stronger binding
Settings: glycan notation: IUPAC condensed, linker removed
Many of the other results were omitted from the sample, so the strongest signals are more common in it than they were.
# label = yes if glycan array binding signal (z-score) >= 3 else no

Completed entries (count: 4):
• Mincle (Bos taurus) (protein) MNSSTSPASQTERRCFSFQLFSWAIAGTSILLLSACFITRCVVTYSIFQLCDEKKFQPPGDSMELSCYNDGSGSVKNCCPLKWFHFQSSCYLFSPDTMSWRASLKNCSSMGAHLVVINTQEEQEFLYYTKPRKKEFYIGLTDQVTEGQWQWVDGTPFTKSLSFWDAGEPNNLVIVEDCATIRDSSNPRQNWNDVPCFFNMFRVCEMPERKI = yes
• Mermaid2 (Stilbonema majum) (protein) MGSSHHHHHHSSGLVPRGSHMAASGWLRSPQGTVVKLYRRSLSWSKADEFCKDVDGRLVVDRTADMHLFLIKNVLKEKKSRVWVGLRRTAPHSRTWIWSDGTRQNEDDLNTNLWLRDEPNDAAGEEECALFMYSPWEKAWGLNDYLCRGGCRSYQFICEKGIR = no
• CLEC-1 (Homo sapiens), Q9NZH3 (protein) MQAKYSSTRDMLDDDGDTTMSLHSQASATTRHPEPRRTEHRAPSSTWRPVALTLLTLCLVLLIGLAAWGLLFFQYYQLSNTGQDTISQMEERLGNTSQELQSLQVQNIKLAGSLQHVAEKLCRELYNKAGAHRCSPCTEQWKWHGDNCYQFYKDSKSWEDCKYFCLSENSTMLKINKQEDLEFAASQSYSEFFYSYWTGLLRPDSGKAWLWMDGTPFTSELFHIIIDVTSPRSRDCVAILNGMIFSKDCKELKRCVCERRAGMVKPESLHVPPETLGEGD = no
• Banana lectin (Musa acuminata) (protein) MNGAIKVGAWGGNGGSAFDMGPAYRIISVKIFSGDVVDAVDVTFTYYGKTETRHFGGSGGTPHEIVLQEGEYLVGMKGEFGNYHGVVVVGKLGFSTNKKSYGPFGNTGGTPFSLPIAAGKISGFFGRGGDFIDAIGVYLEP = yes

Exercise: Would you say CLEC7A (Homo sapiens), Q9BXN2 (protein) MEYHPDLENLDEDGYTQLHFDSQSNTRIAVVSEKGSCAASPPWRLIAVILGILCLVILVIAVVLGTMAIWRSNSGSNTLENGYFLSRNKENHSQPTQSSLEDSVTPTKAVKTTGVLSSPCPPNWIIYEKSCYLFSMSLNSWDGSKRQCWQLGSNLLKIDSSNELGFIVKQVSSQPDNSFWIGLSRPQTEVPWLWEDGSTFSSNLFQIRTTATQENPSPNCVWIHVSVIYDQLCSVPSYSICEKKFSM shows glycan array binding signal (z-score) at minimum 3?
Key: no

Exercise: Try SalT (Orysata sativa) (protein) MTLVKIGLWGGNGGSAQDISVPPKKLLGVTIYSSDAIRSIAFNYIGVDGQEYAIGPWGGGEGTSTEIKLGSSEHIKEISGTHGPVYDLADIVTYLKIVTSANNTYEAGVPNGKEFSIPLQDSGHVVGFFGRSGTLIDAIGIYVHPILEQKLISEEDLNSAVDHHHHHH next.
Key: yes

Exercise: What about this binder? Gal 9 (Homo sapiens), O00182 (protein) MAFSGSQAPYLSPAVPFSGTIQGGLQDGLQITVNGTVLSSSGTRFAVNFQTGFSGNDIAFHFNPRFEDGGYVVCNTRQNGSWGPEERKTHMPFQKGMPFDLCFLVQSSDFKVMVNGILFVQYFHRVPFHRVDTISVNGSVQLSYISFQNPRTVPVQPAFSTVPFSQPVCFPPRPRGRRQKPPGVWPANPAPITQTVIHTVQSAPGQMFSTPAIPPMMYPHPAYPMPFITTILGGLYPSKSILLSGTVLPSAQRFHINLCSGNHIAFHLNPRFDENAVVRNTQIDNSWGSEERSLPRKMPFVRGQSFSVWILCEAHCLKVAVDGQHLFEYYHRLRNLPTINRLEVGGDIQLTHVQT
Key: no

Exercise: What do you have for Microvirin-2 (Microcystis aeruginosa) (protein) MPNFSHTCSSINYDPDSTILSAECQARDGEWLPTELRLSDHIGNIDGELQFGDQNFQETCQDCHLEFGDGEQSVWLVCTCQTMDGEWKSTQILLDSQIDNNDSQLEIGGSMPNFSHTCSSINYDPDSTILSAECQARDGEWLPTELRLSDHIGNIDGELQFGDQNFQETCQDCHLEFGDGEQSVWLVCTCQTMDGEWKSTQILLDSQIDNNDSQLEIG ?
Key: yes

Exercise: // next record Banana lectin (Musa acuminata) (protein) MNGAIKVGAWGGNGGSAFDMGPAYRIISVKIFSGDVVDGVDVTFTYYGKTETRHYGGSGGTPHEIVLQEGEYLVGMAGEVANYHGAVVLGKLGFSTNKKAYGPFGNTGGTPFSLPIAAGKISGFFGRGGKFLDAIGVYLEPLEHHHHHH
Key: yes
